Just for reference, paper PMC10141580 is where these values come from.

System: NCI-60 standardized human tumor cell line panel
Assay: cells
Assay type: cell-based
Details: cell line U251 (CNS:U251); TMI sheet
measure_name: NCI-60 screening: Log(RedIndex)
Numbers only.

| compound | numeric_readout |
| --- | --- |
| COc1cc2cc(C(=O)N3CC(CCl)c4c3cc(OC(=O)N3CCN(C)C5CSSCC53)c3ccccc43)[nH]c2c(OC)c1OC (mixture of isomers) [Me-SS66C-CBI-TMI] | 1.04 |
| COc1cc2cc(C(=O)N3C[C@@H](CCl)c4c3cc(OC(=O)N(CCC(=O)N3CCN(C)CC3)[C@H]3CCSSC3)c3ccccc43)[nH]c2c(OC)c1OC | 0.96 |
| COc1cc2cc(C(=O)N3C[C@@H](CCl)c4c3cc(OC(=O)N3CCN(C(=O)CCC(=O)N5CCN(C)CC5)[C@H]5CSSC[C@H]53)c3ccccc43)[nH]c2c(OC)c1OC [P-SS66C-CBI-TMI] | 1.27 |

Turning now to a further record.
Item under review: COc1cc2cc(C(=O)N3CC(CCl)c4c3cc(OC(=O)N3CCN(C)C5CSSCC53)c3ccccc43)[nH]c2c(OC)c1OC (mixture of isomers) [Me-SS66T-CBI-TMI] . Reported NCI-60 screening: Log(RedIndex)?
2.14

---

System: panel of 140 standard cancer cell lines
Assay: ProliFiler-140 cancer cell line screen (CellTiterGlo, 72 h)
Format: cell-based
Conditions: read-out: IC50 [M] (ProliFiler-140); MV4-11 (Blood)
measure_name: IC50 (M)
Give bare numbers, in M.

Item under review: COc1cc2cc(C(=O)N3C[C@@H](CCl)c4c3cc(OC(=O)N3CCN(C(=O)CCC(=O)N5CCN(C)CC5)[C@H]5CSSC[C@H]53)c3ccccc43)[nH]c2c(OC)c1OC [P-SS66C-CBI-TMI] . Reported IC50?
1.54e-09

---

For each record, write down the corresponding GI50.
Tested on: NCI-60 standardized human tumor cell line panel
Test: cells
Format: cell-based
Settings: NCI-H522; AZI sheet; read-out: GI50
Numbers only, in µM.

Example results:
| molecule | measure_name | numeric_readout |
| --- | --- | --- |
| CN1CCN(C(=O)CCN(C(=O)Oc2cc3c(c4ccccc24)[C@H](CCl)CN3C(=O)c2cc3cc(OCCCN4CCC4)ccc3[nH]2)[C@H]2CCSSC2)CC1 | GI50 | 0.25 |
| O=C(c1cc2cc(OCCCN3CCC3)ccc2[nH]1)N1C[C@@H](CCl)c2c1cc(OCc1ccccc1)c1ccccc21 | GI50 | 0.38 |

Can you give me GI50 for all of these, one by one?
1. CN1CCN(C(=O)Oc2cc3c(c4ccccc24)C(CCl)CN3C(=O)c2cc3cc(OCCCN4CCC4)ccc3[nH]2)C2CSSCC21 (mixture of isomers) [Me-SS66C-CBI-AZI]
2. CN(CCSSCCN1CCOCC1)C(=O)Oc1cc2c(c3ccccc13)[C@H](CCl)CN2C(=O)c1cc2cc(OCCCN3CCC3)ccc2[nH]1 [SS00M-CBI-AZI]
3. CN1CCN(C(=O)Oc2cc3c(c4ccccc24)C(CCl)CN3C(=O)c2cc3cc(OCCCN4CCC4)ccc3[nH]2)C2CSSCC21 (mixture of isomers) [Me-SS66T-CBI-AZI]

1. 0.028
2. 0.27
3. 0.011
